- Tested on: Yap1 mRNA
- test.name: Antisense inhibition of human Yap1 in SNU-449 cells by modified oligonucleotides, single dose (Example 5, RTS36584)
- Assay type: cell-based
- test.parameters: Yap1 mRNA, percent of untreated control; modified oligonucleotides targeting SEQ ID NO: 1 and 2; Table 47
Strand notation (5' to 3'): a small letter for the sugar, then the base; units joined by * are phosphorothioate-linked, units joined directly phosphodiester-linked; [ ] holds rarer units or linkages, { } end groups; capitals alone tell only the bases. k = constrained ethyl (cEt); [5mC] = 5-methylcytosine; d = 2'-deoxy (DNA)
outcome.measure: YAP1 (% UT)
Report as a plain number; the unit % UT is understood.

API: value(readout= YAP1 (% UT), system= Yap1 mRNA, query= 1074463 (kT*kA*kG*dA*dG*dT*dA*dT*dG*dT*dG*dG*d[5mC]*kA*kA*kT; antisense) [Compound 1074463] )
20

API: value(readout= YAP1 (% UT), system= Yap1 mRNA, query= 1197192 (antisense kA*kT*kA*dG*dT*dG*d[5mC]*dT*dT*dT*dG*dG*dA*kA*kG*kA) [Compound 1197192] )
39

API: value(readout= YAP1 (% UT), system= Yap1 mRNA, query= 1009327 (kA*kT*kA*dT*dT*dA*dG*dA*dG*dT*dA*dT*dG*kT*kG*kG; antisense) [Compound 1009327] )
27

API: value(readout= YAP1 (% UT), system= Yap1 mRNA, query= 1197189 (antisense kT*kT*kT*dG*dG*dA*dA*dG*dA*dT*d[5mC]*dT*dG*kA*kA*kA) [Compound 1197189] )
71

API: value(readout= YAP1 (% UT), system= Yap1 mRNA, query= 1197223 (antisense kT*kA*kA*dG*dT*dA*dA*dG*dG*dT*dT*dT*d[5mC]*k[5mC]*k[5mC]*kA) [Compound 1197223] )
11

---

- Test system: Yap1 mRNA
- test.name: Dose-dependent inhibition of human Yap1 in A-431 cells (Example 8, 10,000 cells per well, RTS4814)
- Type: cell-based
- test.parameters: 2000.00 nM; A-431 cells, 10,000 cells per well, free uptake, approximately 48 hours, RTS4814
Strand notation (5' to 3'): a small letter for the sugar, then the base; units joined by * are phosphorothioate-linked, units joined directly phosphodiester-linked; [ ] holds rarer units or linkages, { } end groups; capitals alone tell only the bases. k = constrained ethyl (cEt); [5mC] = 5-methylcytosine; d = 2'-deoxy (DNA)
Threshold rule: Yap1 mRNA, % UTC greater than or equal to 6 % UTC is T; below that, F.

Can 1076462 (kT*k[5mC]*kA*dG*dA*dA*dG*dG*dA*dT*dA*dT*dG*k[5mC]*kA*kG; antisense) [compound 1076462] be said to have Yap1 mRNA, % UTC at or above 6 % UTC?
F

Can 1074728 (antisense kT*kG*kA*dG*dG*dT*dA*dT*dA*dA*d[5mC]*dT*dG*kG*kG*k[5mC]) [compound 1074728] be said to have Yap1 mRNA, % UTC at or above 6 % UTC?
F

Can 1074420 (kG*kA*kT*dT*d[5mC]*dT*dT*dT*dA*dG*dA*dG*d[5mC]*k[5mC]*kA*kA; antisense) [compound 1074420] be said to have Yap1 mRNA, % UTC at or above 6 % UTC?
F

Can 1076114 (kA*kT*kT*dA*dG*dT*dA*dA*dG*d[5mC]*dT*dG*dA*kG*kG*kA; antisense) [compound 1076114] be said to have Yap1 mRNA, % UTC at or above 6 % UTC?
F

Can 1076298 (kG*kT*kT*dA*dT*dA*dA*dA*dG*dA*d[5mC]*d[5mC]*d[5mC]*kA*kA*kT; antisense) [compound 1076298] be said to have Yap1 mRNA, % UTC at or above 6 % UTC?
T

Can 1076453 (GTAATATTGCAATCTG; 3-10-3 cEt gapmer, further chemistry not given here) [compound 1076453] be said to have Yap1 mRNA, % UTC at or above 6 % UTC?
F

Can 1074850 (kT*kT*kG*dT*dT*dA*dT*dG*dA*dT*dA*dG*dG*k[5mC]*kA*k[5mC]; antisense) [compound 1074850] be said to have Yap1 mRNA, % UTC at or above 6 % UTC?
F

Can 1074479 (k[5mC]*kA*kT*dT*dT*dG*d[5mC]*d[5mC]*dT*dA*dG*dG*dT*kT*k[5mC]*k[5mC]; antisense) [compound 1074479] be said to have Yap1 mRNA, % UTC at or above 6 % UTC?
F

Can 1076426 (kA*k[5mC]*kG*dG*dG*dA*dA*dA*dA*dT*dT*d[5mC]*dT*kG*kG*kA; antisense) [compound 1076426] be said to have Yap1 mRNA, % UTC at or above 6 % UTC?
T

Can 1076367 (antisense k[5mC]*kT*kA*dT*dT*dT*dA*d[5mC]*dA*dT*dG*dA*dG*kA*kG*kG) [compound 1076367] be said to have Yap1 mRNA, % UTC at or above 6 % UTC?
F

Can 1074448 (kT*kA*kA*dT*dG*dA*dT*dA*dG*d[5mC]*dA*d[5mC]*dT*kA*kG*kG; antisense) [compound 1074448] be said to have Yap1 mRNA, % UTC at or above 6 % UTC?
F

Can 1074368 (kG*kA*kT*dA*dG*dT*dA*dT*d[5mC]*dA*d[5mC]*d[5mC]*dT*kG*kT*kA; antisense) [compound 1074368] be said to have Yap1 mRNA, % UTC at or above 6 % UTC?
T

Can 1075968 (kT*kA*kT*dT*dT*dA*dA*dG*d[5mC]*d[5mC]*dA*dA*dA*k[5mC]*k[5mC]*kG; antisense) [compound 1075968] be said to have Yap1 mRNA, % UTC at or above 6 % UTC?
F

Can 1076516 (k[5mC]*kA*kT*dA*dA*dA*d[5mC]*dA*dT*dG*dA*dG*dT*kG*kG*kT; antisense) [compound 1076516] be said to have Yap1 mRNA, % UTC at or above 6 % UTC?
T

Can 1076525 (kG*kA*kA*dT*dT*dT*dA*dT*dA*dT*d[5mC]*dA*dG*kG*kT*k[5mC]; antisense) [compound 1076525] be said to have Yap1 mRNA, % UTC at or above 6 % UTC?
F

Can 1074606 (DNA kG*kG*kT*dA*dT*dA*dA*dT*d[5mC]*dA*dT*dG*dA*kT*kT*kA) [compound 1074606] be said to have Yap1 mRNA, % UTC at or above 6 % UTC?
F

Can 1074578 (DNA kG*k[5mC]*kT*dT*dA*dT*dT*dT*d[5mC]*dT*dG*dT*d[5mC]*kA*kT*kG) [compound 1074578] be said to have Yap1 mRNA, % UTC at or above 6 % UTC?
T

Can 1074315 (antisense kG*kA*kT*dT*dG*dA*dT*dA*dT*dT*d[5mC]*d[5mC]*dG*k[5mC]*kA*kT) [compound 1074315] be said to have Yap1 mRNA, % UTC at or above 6 % UTC?
F

Can 1075686 (kG*kT*kA*dA*dT*dT*dA*d[5mC]*dA*dG*dT*dG*dT*k[5mC]*kT*k[5mC]; antisense) [compound 1075686] be said to have Yap1 mRNA, % UTC at or above 6 % UTC?
T

Can 1074509 (kT*kG*kT*dT*dA*dT*dG*dT*dT*dT*dG*dG*dG*kT*kG*kT; antisense) [compound 1074509] be said to have Yap1 mRNA, % UTC at or above 6 % UTC?
F

Can 1076416 (kA*k[5mC]*k[5mC]*dG*dA*dA*dA*dT*dG*dA*dT*dA*d[5mC]*kT*kG*kA; antisense) [compound 1076416] be said to have Yap1 mRNA, % UTC at or above 6 % UTC?
T

Can 1074222 (antisense kA*kG*kG*dA*dA*dT*dG*dA*dG*d[5mC]*dT*d[5mC]*dG*kA*kA*k[5mC]) [compound 1074222] be said to have Yap1 mRNA, % UTC at or above 6 % UTC?
F

---

- System: Yap1 mRNA
- test.name: Dose-dependent inhibition of human Yap1 in A-431 cells (Example 8, 10,000 cells per well, RTS4814)
- Type: cell-based
- test.parameters: 31.3 nM; A-431 cells, 10,000 cells per well, free uptake, approximately 48 hours, RTS4814
Strand notation (5' to 3'): a small letter for the sugar, then the base; units joined by * are phosphorothioate-linked, units joined directly phosphodiester-linked; [ ] holds rarer units or linkages, { } end groups; capitals alone tell only the bases. k = constrained ethyl (cEt); [5mC] = 5-methylcytosine; d = 2'-deoxy (DNA)
Threshold rule: Yap1 mRNA, % UTC greater than or equal to 60 % UTC is true; below that, false.

Can 1075089 (k[5mC]*kA*kT*dT*dT*dA*dT*dA*dG*dT*d[5mC]*dA*dG*kG*kT*kT; antisense) [compound 1075089] be said to have Yap1 mRNA, % UTC at or above 60 % UTC?
false

Can 1076552 (kA*kT*kG*dT*dA*dT*dA*dA*dA*dT*dA*d[5mC]*d[5mC]*kA*kG*kG; antisense) [compound 1076552] be said to have Yap1 mRNA, % UTC at or above 60 % UTC?
true

Can 1074607 (DNA kA*kA*kG*dG*dT*dA*dT*dA*dA*dT*d[5mC]*dA*dT*kG*kA*kT) [compound 1074607] be said to have Yap1 mRNA, % UTC at or above 60 % UTC?
false

Can 1074446 (kA*kT*kG*dA*dT*dA*dG*d[5mC]*dA*d[5mC]*dT*dA*dG*kG*kA*kG; antisense) [compound 1074446] be said to have Yap1 mRNA, % UTC at or above 60 % UTC?
false

Can 1074736 (kT*k[5mC]*kA*dG*dT*dA*d[5mC]*dA*dG*dA*dG*dG*dG*k[5mC]*kA*kT; antisense) [compound 1074736] be said to have Yap1 mRNA, % UTC at or above 60 % UTC?
false

Can 1074477 (kG*kT*kT*d[5mC]*d[5mC]*dG*dA*d[5mC]*dA*dA*dA*dA*d[5mC]*k[5mC]*kA*kA; antisense) [compound 1074477] be said to have Yap1 mRNA, % UTC at or above 60 % UTC?
true

Can 1075207 (k[5mC]*kT*kA*dT*dT*dA*dA*dA*dT*dG*dA*dG*d[5mC]*kA*k[5mC]*k[5mC]; antisense) [compound 1075207] be said to have Yap1 mRNA, % UTC at or above 60 % UTC?
true

Can 1074726 (antisense kG*kG*kT*dA*dT*dA*dA*d[5mC]*dT*dG*dG*dG*d[5mC]*kA*kA*kA) [compound 1074726] be said to have Yap1 mRNA, % UTC at or above 60 % UTC?
false

Can 1074413 (kA*k[5mC]*kT*dG*dT*dG*dA*dA*dA*dG*dA*dG*dG*kT*k[5mC]*kA; antisense) [compound 1074413] be said to have Yap1 mRNA, % UTC at or above 60 % UTC?
false

Can 1075792 (kG*kA*kT*dT*dA*dG*dA*dA*dA*dG*dT*dG*d[5mC]*k[5mC]*kT*kT; antisense) [compound 1075792] be said to have Yap1 mRNA, % UTC at or above 60 % UTC?
true

Can 1074508 (kG*kA*kG*dA*dG*dA*dG*d[5mC]*dA*dG*dA*dT*dA*kA*kT*k[5mC]; antisense) [compound 1074508] be said to have Yap1 mRNA, % UTC at or above 60 % UTC?
true

Can 1074597 (DNA kA*kG*kT*dA*dT*dT*d[5mC]*dT*dA*dT*d[5mC]*d[5mC]*dA*kG*kG*kG; antisense) [compound 1074597] be said to have Yap1 mRNA, % UTC at or above 60 % UTC?
false
